Test system: K-562 leukemia
Assay: NCI tumour cell line growth inhibition, 48 h

| Molecule | TGI |
| --- | --- |
| Fc1ccc(-c2ncn(C3CCNCC3)c2-c2ccnc(Oc3ccccc3)n2)cc1 | > 25 µM |
| COc1ccc(-n2nnc3c(C#N)c(-c4ccccc4)c(C)n3c2=O)cc1 | > 100 µM |
| Cn1cc(C2=C(c3c4n(c5ccccc35)CC(CN)C4)C(=O)NC2=O)c2ccccc21 (stereo unspecified) | 17.9 µM |
| COc1ccc(C2=NN(C(=O)c3ccccc3)C(O)(c3cc(F)c(Cl)cc3Cl)C2)cc1OC (stereo unspecified) | > 100 µM |
| SC[C@@H]1COC[C@H](CS)S1 | > 100 µM |
| COc1ccc(-c2cn(-c3ccc(Cl)cc3)c(=S)[nH]2)cc1OC | > 100 µM |

----------
A collection of compounds and their measured TGI
System: SK-MEL-28 melanoma
Experiment: NCI tumour cell line growth inhibition, 48 h

| Compound | Unit | Value Relation Sign | TGI |
| --- | --- | --- | --- |
| COc1ccc(-n2nnc3c(C#N)c(-c4ccccc4)c(C)n3c2=O)cc1 | µM | > | 100 |
| C[As](C)Sc1ccnc(S[As](C)C)n1 | µM | = | 19.7 |
| O=C(Nc1ncc(Cc2ccccc2)s1)c1ccc2c(c1)OCCO2 | µM | > | 100 |
| COc1ccc(/C=C/C(=O)c2nc3ccccc3[nH]2)cc1 | µM | = | 65.6 |
| Nc1ccc2cc(S(=O)(=O)O)cc(O)c2c1N=Nc1ccc(NC(=O)Nc2ccc(N=Nc3c(N)ccc4cc(S(=O)(=O)O)cc(O)c34)c(S(=O)(=O)O)c2)cc1S(=O)(=O)O | µM | > | 100 |
| COc1ccc2c(c1)CCc1cnn(C3OC(COC(C)=O)C(OC(C)=O)C(OC(C)=O)C3OC(C)=O)c1-2 (configuration not stated) | µM | > | 100 |
| Cn1c(=O)cc(NNc2ccc(Br)cc2)[nH]c1=O | µM | = | 34.7 |

----------
System: UACC-257 melanoma
Experiment: NCI tumour cell line growth inhibition, 48 h
Threshold rule: TGI greater than or equal to 30 µM is Criterion met; below that, Criterion not met.

| Compound | Classification |
| --- | --- |
| C[As](C)Sc1ccnc(S[As](C)C)n1 | Criterion not met |
| COc1ccc2c(CC(=O)O)cc(=O)oc2c1 | Criterion met |
| CCOc1cc(C=O)c2c(ccc3ccc(OC)c(OC)c32)c1OC | Criterion met |
| CC1(C)N(OC2CCCCO2)C(c2ccccc2)C(c2ccccc2)=[N+]1[O-] (stereo unspecified) | Criterion met |
| CCOC(=O)c1ccc2c(c1)[n+](=O)c(C(=O)c1ccc3ccccc3c1)c(C(F)(F)F)n2[O-] | Criterion not met |
| Cc1c2ccccc2c(CO)c2cc(F)c3ccccc3c12 | Criterion met |
| COc1ccc(N2C(=O)CSC2c2cc3cc(Br)ccc3nc2Cl)cc1 (stereo unspecified) | Criterion met |
| O=C(CCc1nnc(-c2c(Cl)cccc2Cl)o1)c1nc2ccccc2[nH]1 | Criterion met |
| CCCCCCCCCCCCOC1C(CNC(=O)C2OC3OC(C)(C)OC3C2NC(=O)CN2CCN(c3ccccn3)CC2)OC2OC(C)(C)OC21 (stereo unspecified) | Criterion not met |
| CCCCOP(=O)(OCCCC)/C(C#N)=C/c1ccc(C)o1 | Criterion met |
| O=C1NC2OCC(O)C(O1)C2O (stereo unspecified) | Criterion met |
| CCOC(=O)c1c[nH]c2c(OCc3ccccc3)c3ccccc3c(O)c2c1=O | Criterion not met |
| Fc1ccc(CNc2c3ccccc3nc3ccccc23)cc1 | Criterion not met |
| NCCCCC(N)C(=O)N1CCN(c2nc(N3CCCC3)c3nc(Cl)c(NCc4ccccc4)nc3n2)CC1 (stereo unspecified) | Criterion met |
| Cn1c(=O)nc2n(CCO)ccnc-2c1=O | Criterion met |
| COc1ccc(/C=C2\N=C(c3ccccc3)N(c3cc(C(F)(F)F)ccc3Cl)C2=O)cc1OC | Criterion met |
| CCCCCCNC(=O)c1cc(C#Cc2cc(OC)ccc2OC)ccc1OC | Criterion met |
| Oc1ccc(-c2c3ccccc3c(-c3ccc(OCCBr)cc3)c3ccccc23)cc1 | Criterion met |
| COC(=O)CCC(=O)CC(=O)C(=O)Nc1ccc(F)cc1 | Criterion met |
| COc1cc(-c2cc(/C=C/C(=O)c3ccc4c(c3)OCO4)[nH]n2)cc(OC)c1OC | Criterion met |
| Cc1cc(C)nc(NS(=O)(=O)c2ccc(NC(=O)c3cccc4c(Nc5ccc(S(=O)(=O)Nc6nc(C)cc(C)n6)cc5)c5ccccc5nc34)cc2)n1 | Criterion met |

----------
System: OVCAR-4 ovarian
Experiment: NCI tumour cell line growth inhibition, 48 h; in the data active = GI50 below about 0.43 µM; inactive = the rest
Labels: active, inactive

| Compound | System Under Test | Classification |
| --- | --- | --- |
| CCCN(CCC)c1ccc(C=O)cc1 | OVCAR-4 ovarian | inactive |
| CC1(C)CC[C@]2(C(=O)n3ccnc3)CC[C@]3(C)[C@H](C(=O)C=C4[C@@]5(C)C=C(C#N)C(=O)C(C)(C)[C@@H]5CC[C@]43C)[C@@H]2C1 | OVCAR-4 ovarian | active |
| O=C1Nc2ccccc2C1(c1ccc(O)c(F)c1)c1ccc(O)c(F)c1 | OVCAR-4 ovarian | active |
| CCOC(=O)c1c[nH]c2c(OCc3ccccc3)c3ccccc3c(O)c2c1=O | OVCAR-4 ovarian | inactive |
| COc1ccc(Nc2c3c4c(cccc4[nH]c2=O)C(=O)c2ccccc2-3)cc1 | OVCAR-4 ovarian | inactive |
| CCOC(=O)C1=C(N)Oc2c(sc3c(C)cccc23)C1c1ccc(Cl)cc1 (stereo unspecified) | OVCAR-4 ovarian | inactive |
| COc1ccc(/C=C2\N=C(c3ccccc3)N(c3cc(C(F)(F)F)ccc3Cl)C2=O)cc1OC | OVCAR-4 ovarian | inactive |
| COc1ccc(C(=O)C(c2ccc(OC)cc2)C2C(=O)Oc3ccccc32)cc1 (stereo unspecified) | OVCAR-4 ovarian | inactive |
| O=C(O)c1cc(N/C=C2\C(=O)c3ccccc3OC2O)ccc1O (stereo unspecified) | OVCAR-4 ovarian | inactive |
| CC1(C)CC(=O)C2=C(C1)NC(SSC1=C(C#N)C(c3ccc(Br)cc3)C3=C(CC(C)(C)CC3=O)N1)=C(C#N)C2c1ccc(Br)cc1 (stereo unspecified) | OVCAR-4 ovarian | inactive |
| CN(CCCCCl)P(=O)(OCc1ccc([N+](=O)[O-])o1)C(F)(F)c1ccc(CC(=O)N[C@@H](CC(=O)O)C(=O)N[C@@H](Cc2ccc(C(F)(F)P(=O)(OCc3ccc([N+](=O)[O-])o3)N(C)CCCCCl)cc2)C(N)=O)cc1 (stereo partly specified) | OVCAR-4 ovarian | inactive |
| COc1ccc(-c2cn(-c3ccc(Cl)cc3)c(=S)[nH]2)cc1OC | OVCAR-4 ovarian | inactive |
| C(=N/Nc1ncnc2nc[nH]c12)/c1ccccn1 | OVCAR-4 ovarian | active |
| Fc1ccc(CNc2c3ccccc3nc3ccccc23)cc1 | OVCAR-4 ovarian | inactive |
| O=C(/C=C/c1ccccn1)c1ccccc1O | OVCAR-4 ovarian | inactive |
| CCCCCCCCCCCCOC1C(CNC(=O)C2OC3OC(C)(C)OC3C2NC(=O)CN2CCN(c3ccccn3)CC2)OC2OC(C)(C)OC21 (stereo unspecified) | OVCAR-4 ovarian | inactive |

----------
Test system: T-47D breast
Experiment: NCI tumour cell line growth inhibition, 48 h
Threshold rule: TGI greater than or equal to 40 µM is Criterion met; below that, Criterion not met.

| Compound | Classification |
| --- | --- |
| CC(Oc1ccccc1)C(=O)NN (stereo not drawn) | Criterion met |
| COC(=O)C(/C(=N/N)C(=O)Nc1ccc(C)c(C)c1)c1nc2ccc(Cl)cc2[nH]c1=O (stereo not drawn) | Criterion met |
| COc1cc(C(=O)NC2CCN(C)CC2)ccc1Nc1ncc2c(n1)N(C1CCCC1)CC(F)(F)C(=O)N2C | Criterion not met |
| Cc1nc2c(=O)[nH]c3ccccc3c2o1 | Criterion met |
| CCOC(=O)N1CC2(C(=O)OC)C=CC1C(C(=O)OC)C2 (stereo not drawn) | Criterion met |
| CCOC(=O)c1ccc2c(c1)[n+](=O)c(C(=O)c1ccc3ccccc3c1)c(C(F)(F)F)n2[O-] | Criterion not met |
| Nc1ncnc2c1ncn2[C@@H]1C[C@H]1CO | Criterion met |
| COc1ccc2c(C)cc(N/N=C/c3sccc3C)nc2c1 | Criterion not met |
| CC(C)(C)[Si](C)(C)OCC1OC(n2cc(F)c(=O)[nH]c2=O)CC1O[Si](C)(C)C(C)(C)C (stereo not drawn) | Criterion not met |
| C/C(O)=C(/C=N\C(=S)Nc1ccc(Cl)c(Cl)c1)C(=O)Nc1ccccc1C | Criterion met |
| COc1ccc(/C=C/C(=O)c2nc3ccccc3[nH]2)cc1 | Criterion met |
